Would you mind telling me the reported cytotoxicity at 70.5 h of each entry?
test: Human HepG2 cell viability assay in 384 well format; type: toxicity, cell-based; parameters: dose 125 nL, time 70.5 hour; concentration not given beside the values; conditions: HepG2 cells, read-out: Inhibition
One number for each entry, in %.

Example compounds with recorded cytotoxicity at 70.5 h:
- compound: "CO[C@@H]1CN(c2ccccc2)S(=O)(=O)[C@@]12CCN(C(C)=O)C2"
  value_unit: "%"
  cytotoxicity at 70.5 h: -10.5
- compound: "O=C1COc2c(cccc2C(=O)N2CCCCC2Cn2cccn2)N1 (configuration not stated)"
  value_unit: "%"
  cytotoxicity at 70.5 h: -4.26

Record cytotoxicity at 70.5 h for all entries; do not skip any.
1. CCc1ccc(C(=O)N2CCCC2c2c(C)nn(C)c2OC)o1 (configuration not stated)
2. Cc1ccc(C(=O)NCCCn2cccn2)c(=O)[nH]1
3. Cc1ncc(CN2CCCC(c3cc(C(N)=O)[nH]n3)C2)s1 (configuration not stated)
4. O=c1ccc(-c2ccccc2F)nn1CN1CCCCCC1
5. CCC(Nc1nccc(C2CCCC2)n1)c1ccncc1 (configuration not stated)
6. CC(O)c1cccc(OCc2ccon2)c1 (configuration not stated)
7. CCN(CC)C(C(=O)Nc1ccc2c(c1)CCC(=O)N2)c1ccccc1 (configuration not stated)

stdout:
[-6.13, -0.293, 57.9, -4.57, 3.69, -2.61, -11.2]

###

experiment: Human HepG2 cell viability assay in 384 well format; assay type: toxicity, cell-based; design: dose 125 nL, time 70.5 hour; concentration not given beside the values; conditions: HepG2 cells, read-out: Inhibition
Given measured cytotoxicity at 70.5 h, output rule met if it is greater than or equal to 20% and rule not met if not.

stdin: Textbook exercise: given the entry COc1ccc(CNCc2nnc3n2CC(C(F)(F)F)CC3)cc1 (stereo unspecified) , state whether its cytotoxicity at 70.5 h is greater than or equal to 20%.
stdout: rule met

stdin: Entry to check: "Cc1cc(N2CCC(c3nccn3Cc3cscn3)CC2)ccn1"
stdout: rule not met

###

experiment: Human HepG2 cell viability assay in 384 well format; type: toxicity, cell-based; design: dose 125 nL, time 70.5 hour; concentration not given beside the values; settings: HepG2 cells, read-out: Inhibition
metric_name: cytotoxicity at 70.5 h (%)
Give bare numbers, in %.

- compound: "Cc1cccn2cc(CC(=O)N(CCN(C)C)CC3CCCO3)nc12 (configuration not stated)"
  value_unit: "%"
  cytotoxicity at 70.5 h: 17.3
- compound: "COc1ccc(C(=O)NS(=O)(=O)c2cncc(Br)c2)cc1"
  value_unit: "%"
  cytotoxicity at 70.5 h: -16.9

Record cytotoxicity at 70.5 h for all entries; do not skip any.
1. Cc1nnc(NC(=O)CN2CCc3nn(C)c(=O)cc3C2)s1
2. COC(=O)CN1CCN(c2cccc(C)c2)CC1
3. O=C(CCC(=O)c1ccccc1)NC1(C(=O)NCC2CC2)CCCC1
4. c1snnc1CN1C[C@H]2CCC[C@@H](CN3CCOCC3)[C@H]2C1
5. Cc1cnn(CC2CN(Cc3nc(C)no3)CCO2)c1 (configuration not stated)
6. OCCC1CN(C2CCC2)CCN1C1CCCC1 (configuration not stated)

stdout:
[10.8, -2.66, -9.03, -7.77, -1.3, -6.56]

Record cytotoxicity at 70.5 h for all entries; do not skip any.
1. CN(C)CCNC(=O)c1nc2c(o1)CN(C(=O)c1cccnc1)C2
2. CCc1nnc(C(C)N2CCCN(C(=O)Oc3ccccc3)CC2)o1 (configuration not stated)
3. OCCCN1CCCC1c1cccc(Br)c1 (configuration not stated)
4. CCn1ccc2cc(NC(=O)CC3CCCO3)ccc21 (configuration not stated)

stdout:
1: 10.9; 2: 2.06; 3: -4.27; 4: -6.31
